Origin of values: paper PMC6193035

System: intracellular APEC O1 in Caco-2 cells
Assay: Intracellular survival assay
Type: cell-based, Escherichia coli
Details: Escherichia coli; O1, Caco-2, 6 h treatment; read-out: SMs intracellular APEC clearance concentration
METRIC_NAME: minimal effective concentration

minimal effective concentration lookup needed for COc1cc(CNCCc2ccc3ccccc3c2)ccc1OCC(O)CN1CCCC1 (stereo not shown) [SM2] , thanks.
> 200 µM

minimal effective concentration lookup needed for COc1cc(CNCCc2ccc(C)cc2)ccc1OCC(O)CN1CCCC1 (stereo not shown) [SM3] , thanks.
> 200 µM

minimal effective concentration lookup needed for COc1ccc(CCN(Cc2cc3c(cc2Cl)OCO3)CC2CCN(C)CC2)cc1 [SM11] , thanks.
> 200 µM

minimal effective concentration lookup needed for CC1CCCN(CCC(=O)c2ccc(Br)cc2)C1 (stereo not shown) [SM1] , thanks.
> 400 µM

###

Record form. Attribute: minimal effective concentration. Fill in for each entry.
Tested on: intracellular APEC O1 in THP-1 cells
Experiment: Intracellular survival assay
Type: cell-based, Escherichia coli
Details: Escherichia coli; O1, THP-1, 6 h treatment; read-out: SMs intracellular APEC clearance concentration

minimal effective concentration lookup needed for COc1ccc(CCN(Cc2cc3c(cc2Cl)OCO3)CC2CCN(C)CC2)cc1 , thanks.
> 200 µM

minimal effective concentration lookup needed for CC1CCC(C(C)C)C(OC(=O)Cn2c[n+](CC(=O)OC3CC(C)CCC3C(C)C)c3ccccc32)C1 (stereo not drawn) , thanks.
> 100 µM

minimal effective concentration lookup needed for CC(=O)OC(C(Br)C(=O)c1ccc([N+](=O)[O-])cc1)C(Cl)(Cl)Cl (stereo not drawn) , thanks.
> 100 µM
